measured target: T1, CLDN18.2 endogenously expressed on SNU620 gastric cancer cells (UniProt P56856-2 1-261, limits assumed)
T1 construct: whole, on cells; also called SU620
assay info: FACS Exp. 3, SNU620 cells
Reported values of MFI_SNU620 (@30 ug/ml) for individual entries
Kindly answer with a numeric value in MFI, unit omitted.

*Q* May I ask what MFI_SNU620 (@30 ug/ml) has been recorded for hz282-7 (antibody, V domains shown, humanized IgG; constant regions not specified) VH: QVQLQESGPGLVKPSETLSLTCTVSGFSLTSYNVYWIRQPPGKGLEWIGVIWNTGATRYNSALKSRVTISKDTSKSQVSLKLSSVTAADTAVYYCARDSAMPAIPFAYWGQGTLVTVSS VL: DIVMTQSPDSLAVSLGERATINCKSSQSLFGSVRQKNYLAWYQQKPGQSPKLLIYLASTRESGVPDRFSGSGSGTDFTLTISSLQAEDVAKYYCQQYYDIPWTFGGGTKVEIK ?
*A* 1250

*Q* Requested field: MFI_SNU620 (@30 ug/ml). Item: hz282-15 (antibody, V domains shown, humanized IgG; constant regions not specified) VH: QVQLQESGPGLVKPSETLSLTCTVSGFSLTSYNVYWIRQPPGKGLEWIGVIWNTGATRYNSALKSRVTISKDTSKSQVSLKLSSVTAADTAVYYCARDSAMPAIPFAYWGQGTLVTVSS VL: DIQMTQSPSSLSASVGDRVTITCKSSQSLFGSVRQKNYLAWYQQKPGKSPKLLIYLASTRESGVPDRFSGSGSGTDFTLTISSLQPEDFAKYYCQQYYDIPWTFGGGTKVEIK
*A* 1230

*Q* State the recorded MFI_SNU620 (@30 ug/ml) for this entry: hz282-20 (antibody, V domains shown, humanized IgG; constant regions not specified) VH: QVQLQESGPGLVKPSETLSLTCTVAGFSLTSYNVYWIRQPPGKGLEWIGVIWNTGATRYNSALKSRVTISKDTSKSQVSLKLSSVTAADTAVYYCARDSAMPAIPFAYWGQGTLVTVSS VL: DIVMTQSPSSLSASVGDRVTINCKSSQSLFGSVRQKNYLAWYQQKPGKSPKLLIYLASTRESGVPDRFSGSGSGTDFTLTISSLQPEDFAKYYCQQYYDIPWTFGGGTKVEIK
*A* 1240
